Test system: CCRIS mutagenicity, Ames/micronucleus/aberration tests
Experiment description: CCRIS mutagenicity studies
Measurement context: Test System: AMES SALMONELLA TYPHIMURIUM; Strain/Indicator: TA2638; Metabolic Activation: NONE; Method: STANDARD PLATE
Active and inactive are the calls of the source. No rule for the calls is given here.
Your reply should match one of these outcome classes. Y (active), N (inactive)

Here's what some known entries look like.
> print(dat)
                              smiles.record  assigned.category
1  O=C1CN(/N=C/c2ccc([N+](=O)[O-])o2)C(=O)N1                  Y
2                             COc1ccc(N)cc1                  N
3  CCn1cc(C(=O)O)c(=O)c2cc(F)c(N3CCNCC3)nc21                  Y
4  [O]=[Cr](=[O])([OH])[O][Cr](=[O])(=[O])[OH]                  Y
5                 CC1=CC(=O)c2c(O)cccc2C1=O                  N

Shift focus to the following entry.
Give the logged outcome of this assay for the following compound: CN(C)N
Y

Origin of measurements: PubChem BioAssay AID1259407
